B1: ZBTB22 (parent)
chain: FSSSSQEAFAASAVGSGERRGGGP

Variants of: B1
Assay: protein stability index of a GFP-peptide fusion (GPS, HEK-293T) (PSI 1-6); higher = more stable;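 note: lentivirally expressed fusions sorted by FACS into six bins by GFP to DsRed ratio, PSI derived from sequencing read proportions per bin multiplied by bin number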
Conditions: c terminus: a fixed tail appended
Given measured protein stability index, output Yes if it is greater than or equal to 3 and No if not.

## Task Assess whether reported protein stability index for FSSSSQEAFAASAVGWGERRGGGP [S16W] sits at 3 or higher.
## Result No

Entry source: the supplement of paper PMC10567573
